Tested on: T47D
Assay: Antiproliferative activity against human T47D cells assessed as cell growth inhibition at 10 uM incubated for 48 hrs by SRB assay relative to control
Type: functional
Conditions: read-out: GI
quantity.name: inhibition of growth at 10 µM

# return recorded inhibition of growth at 10 µM for entry Cc1nc2c(cnn2-c2ccccc2)c(=O)n1-c1ccc(NC(=O)c2ccc([N+](=O)[O-])cc2)cc1
66.5%

# return recorded inhibition of growth at 10 µM for entry CC(=O)Nc1ccc(-n2c(C)nc3c(cnn3-c3ccccc3)c2=O)cc1
< 15%

# return recorded inhibition of growth at 10 µM for entry Cc1ccc(C(=O)Nc2ccc(-n3c(C)nc4c(cnn4-c4ccccc4)c3=O)cc2)cc1
65.4%

# return recorded inhibition of growth at 10 µM for entry COc1ccc(/C=C/C(=O)c2ccc(-n3c(C)nc4c(cnn4-c4ccccc4)c3=O)cc2)cc1
65.3%

# return recorded inhibition of growth at 10 µM for entry Cc1nc2c(cnn2-c2ccccc2)c(=O)n1-c1ccc(NC(=O)c2ccco2)cc1
34%

# return recorded inhibition of growth at 10 µM for entry Cc1nc2c(cnn2-c2ccccc2)c(=O)n1-c1ccc(/N=C2\C(=O)Nc3ccccc32)cc1
38.3%

# return recorded inhibition of growth at 10 µM for entry Cc1nc2c(cnn2-c2ccccc2)c(=O)n1-c1ccc(NC(=O)c2ccc(F)cc2)cc1
82%
